Numbers sourced from patent US7208505B2.

Target: human β3 adrenergic receptor (Homo sapiens)
Construct: expressed in transfected cells
Sequence (P13945 whole entry): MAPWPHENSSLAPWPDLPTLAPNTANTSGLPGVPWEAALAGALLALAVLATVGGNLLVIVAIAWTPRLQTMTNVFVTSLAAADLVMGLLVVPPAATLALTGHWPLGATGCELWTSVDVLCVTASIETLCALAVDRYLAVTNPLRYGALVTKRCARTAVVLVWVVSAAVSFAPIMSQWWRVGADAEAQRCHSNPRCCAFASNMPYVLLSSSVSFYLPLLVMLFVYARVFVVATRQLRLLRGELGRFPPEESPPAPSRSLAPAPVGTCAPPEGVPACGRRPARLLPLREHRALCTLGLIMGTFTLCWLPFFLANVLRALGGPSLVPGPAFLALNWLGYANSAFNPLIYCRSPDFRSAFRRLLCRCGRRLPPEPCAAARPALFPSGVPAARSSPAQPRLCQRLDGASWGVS
Experiment: whole cell receptor coupled c-AMP assay (Emax relative to isoproterenol)
Type: cell-based
Details: % intrinsic activity: maximal response divided by isoproterenol maximal response times 100; transfected CHO cells; average of at least 3 runs
Response field label takes met when Emax (%) ± SEM is strictly below 60% and not met in all other cases.

Below, 6 compounds whose answers are already recorded.
chemicalStructure: CC(C)(Cc1c[nH]c2c(C(=O)O)cccc12)NC[C@H](O)COc1ccccc1-c1ccc(C#N)s1
assayTarget: human β3 adrenergic receptor (Homo sapiens)
discreteLabel: not met
//
chemicalStructure: CC(C)(Cc1c[nH]c2c(F)cccc12)NC[C@H](O)COc1ccccc1-c1nccs1
assayTarget: human β3 adrenergic receptor (Homo sapiens)
discreteLabel: met
//
chemicalStructure: CC(C)(Cc1c[nH]c2c(-c3ccsc3)cccc12)NC[C@H](O)COc1ccccc1-c1cccs1
assayTarget: human β3 adrenergic receptor (Homo sapiens)
discreteLabel: not met
//
chemicalStructure: CC(C)(Cc1c[nH]c2ccc(C#N)cc12)NC[C@H](O)COc1ccccc1-c1cccs1
assayTarget: human β3 adrenergic receptor (Homo sapiens)
discreteLabel: met
//
chemicalStructure: CC(C)(Cc1c[nH]c2ccccc12)NC[C@H](O)COc1ccccc1-c1ccns1
assayTarget: human β3 adrenergic receptor (Homo sapiens)
discreteLabel: not met
//
chemicalStructure: CC(C)(Cc1c[nH]c2cc(C(=O)O)ccc12)NC[C@H](O)COc1ccccc1-c1ccsc1
assayTarget: human β3 adrenergic receptor (Homo sapiens)
discreteLabel: not met

Then this compound:
Input: Lab log: compare recorded Emax (%) ± SEM with 60%; is it strictly lower for CC(C)(Cc1c[nH]c2c(-c3ccsc3)cccc12)NC[C@H](O)COc1ccccc1-c1ccon1 ?
Output: met
